Test system: UniProt:P26684
Method summary: Ability to inhibit binding of [125I]ET1 to membranes prepared from A10 rat thoracic aorta smooth muscle Endothelin A receptor
Format: tissue-based
Response field label takes fulfilled when Ki is strictly below 100 nM and not fulfilled in all other cases.

>>> assigned_label("Cc1noc(NS(=O)(=O)c2ccccc2-c2ccc(NC(C)C)cc2)c1C")
"fulfilled"
>>> assigned_label("CC(C)Cc1ccc(-c2ccccc2S(=O)(=O)Nc2onc3c2CCCC3)cc1")
"not fulfilled"
>>> assigned_label("Cc1cccc(-c2ccc(CC(C)C)cc2)c1S(=O)(=O)Nc1onc(C)c1C")
"not fulfilled"
>>> assigned_label("Cc1noc(NS(=O)(=O)c2ccccc2-c2ccccc2[N+](=O)[O-])c1C")
"not fulfilled"
>>> assigned_label("Cc1noc(NS(=O)(=O)c2ccc(N)cc2-c2ccc(CC(C)C)cc2)c1C")
"fulfilled"
>>> assigned_label("CCCNc1cc(CC(C)C)ccc1-c1ccccc1S(=O)(=O)Nc1onc(C)c1C")
"fulfilled"
>>> assigned_label("Cc1noc(NS(=O)(=O)c2ccccc2-c2ccc(OCC(C)C)cc2)c1C")
"fulfilled"

Moving on to the next compound.
Q: Record Cc1cc(CC(C)C)ccc1-c1ccccc1S(=O)(=O)Nc1onc(C)c1C : is its Ki strictly below 100 nM?
Ans: fulfilled

----------
Test system: Endothelin-1 receptor (Rattus norvegicus)
Sequence (P26684 whole entry): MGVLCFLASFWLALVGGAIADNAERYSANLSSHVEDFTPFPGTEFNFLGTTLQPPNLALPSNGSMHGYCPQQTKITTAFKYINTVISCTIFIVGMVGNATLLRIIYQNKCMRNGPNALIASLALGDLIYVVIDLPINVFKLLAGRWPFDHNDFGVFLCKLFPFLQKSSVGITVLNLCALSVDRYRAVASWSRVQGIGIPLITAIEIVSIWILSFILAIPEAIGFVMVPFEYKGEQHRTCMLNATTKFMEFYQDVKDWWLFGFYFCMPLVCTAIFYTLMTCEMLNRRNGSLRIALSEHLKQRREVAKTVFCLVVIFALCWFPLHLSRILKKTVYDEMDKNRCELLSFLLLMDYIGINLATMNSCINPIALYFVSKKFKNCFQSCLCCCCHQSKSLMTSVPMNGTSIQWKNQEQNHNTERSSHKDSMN
Method summary: Ability to inhibit binding of [125I]ET1 to membranes prepared from A10 rat thoracic aorta smooth muscle (Endothelin A receptor) was determined by radioligand binding assay
Assay type: tissue-based
Measured quantity: Ki (µM)
Report as a plain number; the unit µM is understood.

Q: Provide only the value of recorded Ki for Cc1noc(NS(=O)(=O)c2ccccc2Br)c1C
Ans: 8

----------
Test system: Endothelin-1 receptor (Rattus norvegicus)
Method summary: Ability to inhibit binding of [125I]ET1 to membranes prepared from A10 rat thoracic aorta smooth muscle Endothelin A receptor
Format: tissue-based
Response field label takes true (1) when Ki is strictly below 60 nM and false (0) in all other cases.

>>> assigned_label("CC(C)Cc1ccc(-c2ccccc2S(=O)(=O)Nc2ccc(Cl)nn2)cc1")
"false (0)"
>>> assigned_label("Cc1noc(NS(=O)(=O)c2ccccc2-c2ccc(CC(C)C)cc2CN)c1C")
"false (0)"
>>> assigned_label("Cc1noc(NS(=O)(=O)c2cccc3c(N(C)C)cccc23)c1C [BMS-182874]")
"true (1)"
>>> assigned_label("Cc1noc(NS(=O)(=O)c2ccccc2-c2cccc(N)c2)c1C")
"false (0)"
>>> assigned_label("Cc1onc(NS(=O)(=O)c2ccccc2-c2ccc(CC(C)C)cc2)c1C")
"true (1)"

Q: Record Cc1noc(NS(=O)(=O)c2ccccc2-c2ccc(CC(C)C)cc2F)c1C : is its Ki strictly below 60 nM?
Ans: true (1)

----------
Reported log10(Ki) values for the following compounds.
Test system: Endothelin receptor type B (Rattus norvegicus, UniProt P21451)
Sequence (P21451 whole entry): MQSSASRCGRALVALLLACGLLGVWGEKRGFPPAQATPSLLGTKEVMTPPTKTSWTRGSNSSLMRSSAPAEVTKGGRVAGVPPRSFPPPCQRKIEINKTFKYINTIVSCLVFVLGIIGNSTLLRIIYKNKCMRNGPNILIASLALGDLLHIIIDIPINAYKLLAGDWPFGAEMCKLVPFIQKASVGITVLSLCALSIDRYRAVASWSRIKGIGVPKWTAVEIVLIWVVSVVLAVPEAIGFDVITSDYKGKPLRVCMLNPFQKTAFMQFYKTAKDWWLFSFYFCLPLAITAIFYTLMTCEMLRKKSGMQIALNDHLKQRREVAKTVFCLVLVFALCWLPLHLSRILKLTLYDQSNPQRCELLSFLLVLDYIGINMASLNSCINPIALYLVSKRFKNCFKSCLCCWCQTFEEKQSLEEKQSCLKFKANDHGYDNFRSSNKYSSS
Method summary: Ability to inhibit binding of [125I]-ET-1 to membranes prepared from […] rat cerebellum (Endothelin B receptor)
Type: tissue-based
Answers are given as log10 of Ki in µM.

>>> reported_result("CC(=O)Nc1ccc(S(=O)(=O)Nc2onc(C)c2C)c(-c2ccc(CC(C)C)cc2)c1")
0.99
>>> reported_result("COc1cccc(S(=O)(=O)Nc2onc(C)c2C)c1-c1ccc(CC(C)C)cc1")
0.30
>>> reported_result("Cc1noc(NS(=O)(=O)c2ccc(NC(=O)CN)cc2-c2ccc(CC(C)C)cc2)c1C")
0.87

Q: Provide only the value of recorded log10(Ki) for Cc1noc(NS(=O)(=O)c2ccc(NC(=O)c3ccccc3)cc2-c2ccc(CC(C)C)cc2)c1C
Ans: 1.58

Q: Provide only the value of recorded log10(Ki) for COc1ccc(-c2ccccc2S(=O)(=O)Nc2onc(C)c2C)cc1
Ans: 2.40

Q: Provide only the value of recorded log10(Ki) for Cc1noc(NS(=O)(=O)c2ccccc2-c2ccc(CC(C)C)cc2NC(C)C)c1C
Ans: 0.46

Q: Provide only the value of recorded log10(Ki) for Cc1noc(NS(=O)(=O)c2ccccc2-c2ccc(CC(C)C)cc2NCCO)c1C
Ans: 0.20

Q: Provide only the value of recorded log10(Ki) for CCNc1cc(CC(C)C)ccc1-c1ccccc1S(=O)(=O)Nc1onc(C)c1C
Ans: 0.15

Q: Provide only the value of recorded log10(Ki) for Cc1noc(NS(=O)(=O)c2cccc(OCCO)c2-c2ccc(CC(C)C)cc2)c1C
Ans: 0.36

Q: Provide only the value of recorded log10(Ki) for Cc1noc(NS(=O)(=O)c2ccccc2-c2ccc(SC(C)C)cc2)c1C
Ans: 0.76
